Target: T1, EsCas13d, nuclease-dead (Eubacterium siraeum, UniProt B0MS50, R295A;H300A;R849A;H854A)
T1 sequence: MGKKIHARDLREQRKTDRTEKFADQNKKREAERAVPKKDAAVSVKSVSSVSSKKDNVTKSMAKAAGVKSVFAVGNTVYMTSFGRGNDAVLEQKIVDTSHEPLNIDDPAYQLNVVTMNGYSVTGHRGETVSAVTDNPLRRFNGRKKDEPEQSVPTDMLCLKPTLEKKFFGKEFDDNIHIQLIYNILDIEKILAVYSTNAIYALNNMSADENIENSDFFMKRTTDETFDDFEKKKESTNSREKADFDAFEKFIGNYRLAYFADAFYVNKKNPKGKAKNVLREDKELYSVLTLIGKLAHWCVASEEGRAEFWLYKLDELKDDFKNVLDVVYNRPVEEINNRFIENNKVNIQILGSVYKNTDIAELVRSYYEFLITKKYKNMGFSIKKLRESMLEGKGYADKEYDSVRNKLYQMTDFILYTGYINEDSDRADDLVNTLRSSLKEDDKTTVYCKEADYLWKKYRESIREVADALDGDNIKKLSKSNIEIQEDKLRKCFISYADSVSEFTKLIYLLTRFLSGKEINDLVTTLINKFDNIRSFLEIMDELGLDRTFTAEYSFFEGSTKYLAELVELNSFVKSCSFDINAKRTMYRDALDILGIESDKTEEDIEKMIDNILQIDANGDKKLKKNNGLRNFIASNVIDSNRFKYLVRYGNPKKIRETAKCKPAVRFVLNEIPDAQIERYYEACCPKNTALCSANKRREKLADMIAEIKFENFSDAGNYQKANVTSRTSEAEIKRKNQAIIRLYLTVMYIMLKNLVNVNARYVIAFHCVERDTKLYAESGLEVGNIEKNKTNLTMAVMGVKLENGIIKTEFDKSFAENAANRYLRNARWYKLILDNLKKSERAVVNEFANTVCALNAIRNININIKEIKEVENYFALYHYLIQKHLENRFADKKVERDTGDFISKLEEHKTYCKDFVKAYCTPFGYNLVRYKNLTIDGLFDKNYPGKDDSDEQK
Assay: crRNA (strand 1, pre-loaded); Mg2+; 40 mM Tris-HCl pH 7.5, 150 mM NaCl, 6 mM MgCl2, 1 mM DTT, 0.1% Tween-20, 0.2 mg/ml BSA; 25 C; 10 min per concentration, then washed
Settings: tags: His6-TwinStrep-SUMO cleaved; N-terminal SNAP kept (SNAP-Surface 488); label: 3' end held by stalled T7 RNA polymerase
Readout: Kd (nM)
Respond with the bare value in nM.

Example entries and their recorded answers appear below.
# Binder, Kd (nM)
measured = [
    ("target 1 C7A,C21U (mixed) RNA 1: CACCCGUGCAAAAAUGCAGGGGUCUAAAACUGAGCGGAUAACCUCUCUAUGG RNA 2: GGGAAUGGAUCCACAUCUACGAAUUCGUACUAUAGAGAGGUUAUACGCUCACCGAGAUCGGAAGAGCACACGU", 6.56),
    ("target 1 insU 3' of 12,insA 3' of 12 (mixed) RNA 1: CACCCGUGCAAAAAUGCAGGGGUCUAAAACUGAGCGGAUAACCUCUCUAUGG RNA 2: GGGAAUGGAUCCACAUCUACGAAUUCGUACCAUAGAGAGGUAUUAUCCGCUCACCGAGAUCGGAAGAGCACACGU", 10.1),
    ("target 2 MT 5'PFS GGC 3'PFS UAU (mixed) RNA 1: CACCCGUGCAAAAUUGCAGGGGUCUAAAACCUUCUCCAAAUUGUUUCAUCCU RNA 2: GGGAAUGGAUCCACAUCUACGAAUUCGGCAGGAUGAAACAAUUUGGAGAAGUAUAGAUCGGAAGAGCACACGU", 12.4),
]

Switching to the query record.
// query Kd value for entry target 1 MT 5'PFS GCA 3'PFS UUA (mixed) RNA 1: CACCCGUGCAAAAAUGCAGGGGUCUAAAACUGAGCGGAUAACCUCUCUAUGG RNA 2: GGGAAUGGAUCCACAUCUACGAAUUCGCACCAUAGAGAGGUUAUCCGCUCAUUAAGAUCGGAAGAGCACACGU
7.65
